Recorded agonist activity (%) by entry
biological target: Human orexin receptor type 2 (Homo sapiens); construct: expressed in transfected cells; host or cells: CHO cells (transient expression); experiment: Test 2: Evaluation of agonist activity for orexin receptor type 2 (aequorin luminescence, intracellular calcium mobilization in CHO cells); format: cell-based; conditions: relative percentage of luminescence for the luminescence (100%) of Orexin A (100 pM); CHO cells transiently expressing human orexin receptor type 2 and apoaequorin; Orexin A Lot. 671009

{"columns": ["Molecule", "Tested on", "Unit abbreviation", "agonist activity (%)"],
 "data": [
  ["CC1(c2noc([C@@H]3C[C@@H]3F)n2)CCN(C(=O)N[C@@H]2[C@@H](O[C@H]3CCN(CC4CC4)C3)CCCC2(F)F)CC1", "Human orexin receptor type 2 (Homo sapiens)", "%", 524],
  ["CCN(C)C1CCN([C@H]2CCCC(F)(F)[C@@H]2NC(=O)N2CCC(C)(c3noc([C@@H]4C[C@@H]4F)n3)CC2)CC1", "Human orexin receptor type 2 (Homo sapiens)", "%", 410],
  ["CC1(c2noc([C@@H]3C[C@@H]3F)n2)CCN(C(=O)N[C@@H]2[C@@H](N3CCC(N4CCCC4)CC3)CCCC2(F)F)CC1", "Human orexin receptor type 2 (Homo sapiens)", "%", 391],
  ["CC(C)N(C)C1(C)CCN([C@H]2CCCC(F)(F)[C@@H]2NC(=O)N2CCC(C)(c3noc([C@@H]4C[C@@H]4F)n3)CC2)CC1", "Human orexin receptor type 2 (Homo sapiens)", "%", 461],
  ["CN(CC1CC1)C1CCN([C@H]2CCCC(F)(F)[C@@H]2NC(=O)N2CCC(C)(c3noc([C@@H]4C[C@@H]4F)n3)CC2)CC1", "Human orexin receptor type 2 (Homo sapiens)", "%", 389],
  ["CN(CC1CC1)[C@@H]1CCCN([C@H]2CCCC(F)(F)[C@@H]2NC(=O)N2CCC(C)(c3noc([C@@H]4C[C@@H]4F)n3)CC2)CC1", "Human orexin receptor type 2 (Homo sapiens)", "%", 403]
]}

* * *

target: Human orexin receptor type 2 (Homo sapiens, UniProt O43614); construct: expressed in transfected cells; host or cells: CHO cells (transient expression); assay: Test 2: Evaluation of agonist activity for orexin receptor type 2 (aequorin luminescence, intracellular calcium mobilization in CHO cells); type: cell-based; conditions: relative percentage of luminescence for the luminescence (100%) of Orexin A (100 pM); CHO cells transiently expressing human orexin receptor type 2 and apoaequorin; Orexin A Lot. 671009
Sequence (O43614 whole entry): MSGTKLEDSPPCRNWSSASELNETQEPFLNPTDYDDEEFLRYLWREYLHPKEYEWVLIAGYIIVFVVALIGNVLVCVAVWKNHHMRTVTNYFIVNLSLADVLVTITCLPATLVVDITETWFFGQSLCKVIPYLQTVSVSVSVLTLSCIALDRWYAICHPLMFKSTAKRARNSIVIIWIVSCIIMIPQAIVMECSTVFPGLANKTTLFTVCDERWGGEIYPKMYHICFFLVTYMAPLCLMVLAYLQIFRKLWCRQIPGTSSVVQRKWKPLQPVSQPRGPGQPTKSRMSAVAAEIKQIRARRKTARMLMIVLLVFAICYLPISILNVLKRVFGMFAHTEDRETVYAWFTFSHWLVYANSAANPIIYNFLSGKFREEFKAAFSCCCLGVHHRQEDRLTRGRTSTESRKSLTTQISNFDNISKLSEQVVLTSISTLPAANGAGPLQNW
Measured metric: agonist activity (%)

{"columns": ["Compound", "Measured metric", "Unit abbreviation", "Recorded number"],
 "data": [
  ["CCN(CC)C1CCN([C@H]2CCCC(F)(F)[C@@H]2NC(=O)N2CCC(C)(c3noc([C@@H]4C[C@@H]4F)n3)CC2)CC1 [Example 129]", "agonist activity (%)", "%", 435],
  ["CC(C)c1nsc(O[C@H]2CCCC(F)(F)[C@@H]2NC(=O)N2CCC(C)(c3noc([C@@H]4C[C@@H]4F)n3)CC2)n1 [Example 87]", "agonist activity (%)", "%", 226],
  ["CC(C)N1CCN([C@H]2CCCC(F)(F)[C@@H]2NC(=O)N2CCC(C)(c3noc([C@@H]4C[C@@H]4F)n3)CC2)[C@@H](C)C1 [Example 110]", "agonist activity (%)", "%", 380],
  ["CN(CC1(C)CC1)C1CCN([C@H]2CCCC(F)(F)[C@@H]2NC(=O)N2CCC(C)(c3noc([C@@H]4C[C@@H]4F)n3)CC2)CC1 [Example 134]", "agonist activity (%)", "%", 456],
  ["CC(C)N1CC[C@H](O[C@H]2CCCC(F)(F)[C@@H]2NC(=O)N2CCC(C)(c3noc(C4CCC4)n3)CC2)C1 [Example 102]", "agonist activity (%)", "%", 374],
  ["CC(C)N1CCC2(CCN([C@H]3CCCC(F)(F)[C@@H]3NC(=O)N3CCC(C)(c4noc([C@@H]5C[C@@H]5F)n4)CC3)CC2)C1 [Example 127]", "agonist activity (%)", "%", 367]
]}

* * *

Molecular target: Human orexin receptor type 2 (Homo sapiens)
Construct: expressed in transfected cells; host or cells: CHO cells (transient expression)
Assay: Test 1: Evaluation of agonist activity for orexin receptor type 2 (aequorin luminescence, intracellular calcium mobilization in CHO cells)
Format: cell-based
Conditions: relative percentage of luminescence for the luminescence (100%) of Orexin A (100 pM); CHO cells transiently expressing human orexin receptor type 2 and apoaequorin; Orexin A Lot. 641114
Description: Test 1: Evaluation of Agonist Activity for Orexin Receptor Type 2 Human orexin receptor type 2 and apoaequorin were transiently expressed in CHO cells, and the agonist activity was evaluated based on intracellular calcium mobilization with ligand stimulation. […] The agonist activity of each test compound for orexin receptor type 2 was calculated as relative percentage of luminescence for the luminescence (100%) of Orexin A (100 pM).
Readings of agonist activity (%) for the listed molecules
Measured metric: agonist activity (%)

{"columns": ["Molecule", "Measured metric", "Recorded number"],
 "data": [
  ["Cc1ccc(C2(C)CCN(C(=O)N[C@@H]3[C@@H](N4CCN(C(C)C)CC4)CCCC3(F)F)CC2)c(F)c1", "agonist activity (%)", 140],
  ["CC(C)N1CCN([C@H]2[C@H](NC(=O)N3CCC(C)(c4noc(C5CC5)n4)CC3)CCCC2(F)F)CC1 (racemic)", "agonist activity (%)", 75],
  ["Cc1ccc(C2(C)CCN(C(=O)N[C@@H]3[C@@H](N4CCN(C(C)C)CC4)CCCC3(F)F)CC2)cc1 [Example 49]", "agonist activity (%)", 151],
  ["CC(C)N1CCN([C@H]2CCCC(F)(F)[C@@H]2NC(=O)N2CCC(C)(c3nnc(C4CC4)s3)CC2)CC1 [Example 44]", "agonist activity (%)", 148],
  ["CC(C)N1CCN([C@@H]2CCCC(F)(F)[C@H]2NC(=O)N2CCC(C)(c3cc(C4CC4)on3)CC2)CC1", "agonist activity (%)", 163],
  ["CCN1CCN([C@H]2CCCC[C@@H]2NC(=O)N2CCC(c3ccc(C)cc3)CC2)CC1 (racemic)", "agonist activity (%)", 72],
  ["Cc1ccc(C2CCN(C(=O)N[C@H]3CCC[C@@H]3N3CCN(C(C)C)CC3)CC2)cc1 (racemic)", "agonist activity (%)", 103]
]}

* * *

biological target: Human orexin receptor type 2 (Homo sapiens, UniProt O43614); construct: expressed in transfected cells; host or cells: CHO cells (transient expression); assay: Test 2: Evaluation of agonist activity for orexin receptor type 2 (aequorin luminescence, intracellular calcium mobilization in CHO cells); format: cell-based; conditions: relative percentage of luminescence for the luminescence (100%) of Orexin A (100 pM); CHO cells transiently expressing human orexin receptor type 2 and apoaequorin; Orexin A Lot. 671009
Measured metric: agonist activity (%)

{"columns": ["Compound", "Tested on", "Result"],
 "data": [
  ["CC(C)c1nc([C@H]2CCCC(F)(F)[C@@H]2NC(=O)N2CCC(C)(c3noc(C4CC4)n3)CC2)no1 [Example 85]", "Human orexin receptor type 2 (Homo sapiens, UniProt O43614)", "360%"],
  ["CC(C)CN(C)C1CCN([C@H]2CCCC(F)(F)[C@@H]2NC(=O)N2CCC(C)(c3noc([C@@H]4C[C@@H]4F)n3)CC2)CC1 [Example 157]", "Human orexin receptor type 2 (Homo sapiens, UniProt O43614)", "392%"],
  ["CC(C)N(C)C1CCN([C@H]2CCCC(F)(F)[C@@H]2NC(=O)N2CCC(C)(c3noc([C@@H]4C[C@@H]4F)n3)CC2)CC1 [Example 114]", "Human orexin receptor type 2 (Homo sapiens, UniProt O43614)", "438%"],
  ["CC(C)N1C[C@H]2CC[C@@H](C1)[C@@H]2O[C@H]1CCCC(F)(F)[C@@H]1NC(=O)N1CCC(C)(c2noc([C@@H]3C[C@@H]3F)n2)CC1 [Example 104]", "Human orexin receptor type 2 (Homo sapiens, UniProt O43614)", "289%"],
  ["CC(C)N(C)[C@H]1CCN([C@H]2CCCC(F)(F)[C@@H]2NC(=O)N2CCC(C)(c3noc([C@@H]4C[C@@H]4F)n3)CC2)C1 [Example 96]", "Human orexin receptor type 2 (Homo sapiens, UniProt O43614)", "493%"],
  ["CC(C)N1[C@@H]2CC[C@H]1C[C@H](O[C@H]1CCCC(F)(F)[C@@H]1NC(=O)N1CCC(C)(c3noc([C@@H]4C[C@@H]4F)n3)CC1)C2 [Example 98]", "Human orexin receptor type 2 (Homo sapiens, UniProt O43614)", "271%"],
  ["CC(C)N1CCN(C[C@H]2CCCC(F)(F)[C@@H]2NC(=O)N2CCC(C)(c3noc([C@@H]4C[C@@H]4F)n3)CC2)CC1 [Example 117]", "Human orexin receptor type 2 (Homo sapiens, UniProt O43614)", "465%"],
  ["CN(CC1(C(F)(F)F)CC1)C1CCN([C@H]2CCCC(F)(F)[C@@H]2NC(=O)N2CCC(C)(c3noc([C@@H]4C[C@@H]4F)n3)CC2)CC1 [Example 140]", "Human orexin receptor type 2 (Homo sapiens, UniProt O43614)", "249%"],
  ["CC(C)(C)CN1CC[C@H](O[C@H]2CCCC(F)(F)[C@@H]2NC(=O)N2CCC(C)(c3noc(C4CC4)n3)CC2)C1 [Example 119]", "Human orexin receptor type 2 (Homo sapiens, UniProt O43614)", "378%"],
  ["CC(C)(C)CN1CC[C@H](O[C@H]2CCCC(F)(F)[C@@H]2NC(=O)N2CCC(C)(c3noc([C@@H]4C[C@@H]4F)n3)CC2)C1 [Example 120]", "Human orexin receptor type 2 (Homo sapiens, UniProt O43614)", "387%"],
  ["CN(C1CC1)[C@H]1CCN([C@H]2CCCC(F)(F)[C@@H]2NC(=O)N2CCC(C)(c3noc([C@@H]4C[C@@H]4F)n3)CC2)C1 [Example 115]", "Human orexin receptor type 2 (Homo sapiens, UniProt O43614)", "403%"],
  ["CC(C)N1CC2CN([C@H]3CCCC(F)(F)[C@@H]3NC(=O)N3CCC(C)(c4noc([C@@H]5C[C@@H]5F)n4)CC3)CC2C1 (stereo partly drawn) [Example 125]", "Human orexin receptor type 2 (Homo sapiens, UniProt O43614)", "402%"],
  ["CC(C)CN1CC[C@H](O[C@H]2CCCC(F)(F)[C@@H]2NC(=O)N2CCC(C)(c3noc([C@@H]4C[C@@H]4F)n3)CC2)C1 [Example 107]", "Human orexin receptor type 2 (Homo sapiens, UniProt O43614)", "363%"],
  ["CC(C)CN1CC[C@H](O[C@H]2CCCC(F)(F)[C@@H]2NC(=O)N2CCC(C)(c3noc(C4CC4)n3)CC2)C1 [Example 116]", "Human orexin receptor type 2 (Homo sapiens, UniProt O43614)", "488%"],
  ["CC(C)N1CC(O[C@H]2CCCC(F)(F)[C@@H]2NC(=O)N2CCC(C)(c3noc([C@@H]4C[C@@H]4F)n3)CC2)C1 [Example 89]", "Human orexin receptor type 2 (Homo sapiens, UniProt O43614)", "0%"],
  ["CC(C)N1CCN([C@@H]2CCCC(F)(F)[C@H]2NC(=O)N2CCC(C)(c3noc([C@H]4C[C@H]4F)n3)CC2)CC1 [Example 82]", "Human orexin receptor type 2 (Homo sapiens, UniProt O43614)", "69%"],
  ["CC(C)N1CCC(S(=O)(=O)[C@H]2CCCC(F)(F)[C@@H]2NC(=O)N2CCC(C)(c3noc([C@@H]4C[C@@H]4F)n3)CC2)CC1 [Example 155]", "Human orexin receptor type 2 (Homo sapiens, UniProt O43614)", "167%"],
  ["CC(C)N1CC[C@@H](N(C)[C@H]2CCCC(F)(F)[C@@H]2NC(=O)N2CCC(C)(c3noc([C@@H]4C[C@@H]4F)n3)CC2)C1 [Example 113]", "Human orexin receptor type 2 (Homo sapiens, UniProt O43614)", "374%"],
  ["CC(C)N(C)[C@H]1CCN([C@H]2CCCC(F)(F)[C@@H]2NC(=O)N2CCC(C)(c3noc(C4CC4)n3)CC2)C1 [Example 99]", "Human orexin receptor type 2 (Homo sapiens, UniProt O43614)", "499%"],
  ["CC1(CN2CC[C@H](O[C@H]3CCCC(F)(F)[C@@H]3NC(=O)N3CCC(C)(c4noc([C@@H]5C[C@@H]5F)n4)CC3)C2)COC1 [Example 150]", "Human orexin receptor type 2 (Homo sapiens, UniProt O43614)", "437%"],
  ["CC(C)N1CC[C@H](N(C)[C@H]2CCCC(F)(F)[C@@H]2NC(=O)N2CCC(C)(c3noc([C@@H]4C[C@@H]4F)n3)CC2)C1 [Example 95]", "Human orexin receptor type 2 (Homo sapiens, UniProt O43614)", "447%"],
  ["CC(C)N1CCN([C@H]2CCCC(F)(F)[C@@H]2NC(=O)N2CCC(C)(c3noc([C@@H]4C[C@@H]4F)n3)CC2)[C@H](C)C1 [Example 111]", "Human orexin receptor type 2 (Homo sapiens, UniProt O43614)", "382%"],
  ["CC(C)N1[C@@H]2CC[C@H]1C[C@@H](O[C@H]1CCCC(F)(F)[C@@H]1NC(=O)N1CCC(C)(c3noc([C@@H]4C[C@@H]4F)n3)CC1)C2 [Example 105]", "Human orexin receptor type 2 (Homo sapiens, UniProt O43614)", "359%"],
  ["CC(C)Cc1cn([C@H]2CCCC(F)(F)[C@@H]2NC(=O)N2CCC(C)(c3noc([C@@H]4C[C@@H]4F)n3)CC2)nn1 [Example 94]", "Human orexin receptor type 2 (Homo sapiens, UniProt O43614)", "382%"]
]}

Each recorded value in this set is attributed to patent US12162872B2.
